TESTED_TARGET: T1, murine TfR expressed by murine neuroblastoma Neuro-2a cells (mouse, UniProt Q62351 1-763)
T1 construct: whole, on cells; also called mTfR (N2a cells)
T1 sequence (Q62351 whole entry): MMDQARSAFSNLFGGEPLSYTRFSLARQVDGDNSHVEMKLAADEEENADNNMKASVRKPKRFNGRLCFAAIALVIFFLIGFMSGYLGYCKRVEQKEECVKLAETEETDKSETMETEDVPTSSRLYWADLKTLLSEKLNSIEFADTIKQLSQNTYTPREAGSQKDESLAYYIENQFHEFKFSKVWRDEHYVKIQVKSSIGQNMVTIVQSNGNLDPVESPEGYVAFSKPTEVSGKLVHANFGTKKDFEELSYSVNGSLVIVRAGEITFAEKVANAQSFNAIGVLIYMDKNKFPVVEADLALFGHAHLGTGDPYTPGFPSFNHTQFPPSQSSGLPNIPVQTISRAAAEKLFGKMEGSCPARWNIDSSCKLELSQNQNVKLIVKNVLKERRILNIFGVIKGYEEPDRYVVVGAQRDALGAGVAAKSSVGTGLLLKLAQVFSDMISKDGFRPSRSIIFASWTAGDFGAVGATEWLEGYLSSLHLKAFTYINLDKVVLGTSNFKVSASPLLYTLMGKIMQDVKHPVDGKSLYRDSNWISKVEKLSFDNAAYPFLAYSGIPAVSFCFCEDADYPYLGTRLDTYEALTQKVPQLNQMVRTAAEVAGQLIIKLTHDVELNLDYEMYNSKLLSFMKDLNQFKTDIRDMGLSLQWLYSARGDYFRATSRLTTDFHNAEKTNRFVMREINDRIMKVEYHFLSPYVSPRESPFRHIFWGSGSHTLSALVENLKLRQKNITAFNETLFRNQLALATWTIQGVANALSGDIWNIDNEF
ASSAY_EXPLANATION: competition with the fluorescent reference VHH on Neuro-2a cells as in FIG. 25; Ki/app on mTfR, free VHH
MEASURED_ENDPOINT: pKi
Just so you know, pKi here is -log10 of the concentration in molar units; reply with that number alone.

Annotate the binder C5^h18 (VHH) VHH: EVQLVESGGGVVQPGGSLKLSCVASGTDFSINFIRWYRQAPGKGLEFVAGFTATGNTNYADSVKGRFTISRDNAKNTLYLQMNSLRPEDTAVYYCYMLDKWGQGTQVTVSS with its measured pKi.
5.83

Annotate the binder B8^h1 (VHH) VHH: EVQLVESGGGVVQPGGSLRLSCAASGEIFSINFMRWYRQAPGKGLEWVAGFTRDGSTNYPDSVKGRFTISRDNAKNTVYLQMNSLRPEDTAVYYCYMLDTWGQGTQVTVSS with its measured pKi.
7.37

Annotate the binder VHH A (C5) (VHH, form with the C-terminal myc-His6 tag (x = 1), since the VHHs were detected with anti-6His or anti-cMyc; the same holds for m12 to m126) VHH: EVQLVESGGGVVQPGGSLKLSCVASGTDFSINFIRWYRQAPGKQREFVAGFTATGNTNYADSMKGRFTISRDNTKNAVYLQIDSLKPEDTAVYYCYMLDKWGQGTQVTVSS with its measured pKi.
6.50

Annotate the binder C5^h19 (VHH) VHH: EVQLVESGGGVVQPGGSLRLSCAASGTDFSINFIRWYRQAPGKQREFVAGFTATGNTNYADSVKGRFTISRDNAKNTLYLQMNSLRPEDTAVYYCYMLDKWGQGTQVTVSS with its measured pKi.
5.12

Annotate the binder VHH B (B8) (VHH) VHH: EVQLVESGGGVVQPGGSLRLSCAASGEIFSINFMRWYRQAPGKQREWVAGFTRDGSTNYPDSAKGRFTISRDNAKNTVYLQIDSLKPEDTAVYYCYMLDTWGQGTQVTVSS with its measured pKi.
7.25

Annotate the binder VHH A13 (C5^V13) (VHH) VHH: EVQLVESGGGVVQPGGSLKLSCVASGTDFSINFIRWYRQAPGKQREFVAGFSATGNTNYADSMKGRFTISRDNTKNAVYLQIDSLKPEDTAVYYCYMLDKWGQGTQVTVSS with its measured pKi.
5.88

Annotate the binder VHH A1 (C5^V1) (VHH) VHH: EVQLVESGGGVVQPGGSLKLSCVASGADFSINFIRWYRQAPGKQREFVAGFTATGNTNYADSMKGRFTISRDNTKNAVYLQIDSLKPEDTAVYYCYMLDKWGQGTQVTVSS with its measured pKi.
6.08
